# Test system: HL-60(TB) leukemia
# assay-text: NCI-60 one-dose screen, 48 h (100 = growth as untreated, 0 = no growth, -100 = all killed)
# conditions: 10 µM unless noted
About 83,000 compounds went through this panel and 20% of them were active in at least one assay; those are over-represented in the sample as a whole.
Let's look at some compounds and their measured growth.
Reply numerically in %, unit not repeated.

// worked examples, growth included
{"columns": ["compound", "growth (%)"],
 "data": [
  ["O=S1SC(c2ccccc2)=NN1c1cc(F)cc(F)c1 (stereo not drawn)", 32.2],
  ["COc1ccc(C2CC(c3ccc(Nc4nc(NCCO)nc(N5CCOCC5)n4)cc3)=Nc3c(N)nc(N)nc3N2)cc1 (stereo not drawn)", 90.9],
  ["COc1cc(NC2=C(Cl)C(=O)c3nc(C)ccc3C2=O)cc(OC)c1", -13.4],
  ["Cc1ccc2c(n1)C(=O)C(Cl)=C(Nc1cccc(C(C)C)c1)C2=O", 10.3],
  ["O=C1NC(=O)/C(=C/c2ccc(OCc3cc4ccccc4nc3Cl)cc2)S1", 100],
  ["CNC(=O)c1cc(-c2ccc(NC(=S)Nc3cc(C(F)(F)F)cc(C(F)(F)F)c3)cc2)nc2cccnc12", 121]
]}

Query string: Respond only with growth recorded for O=C(CCl)Nc1ccc(NC(=O)c2cc(Cl)ccc2O)c(Cl)c1
Result string: 49.3

Query string: Respond only with growth recorded for O=C1c2c(c3c4cc(Br)ccc4[nH]c3c3ccc4ccccc4c23)C(=O)N1CCN1CCNCC1
Result string: 62.3

Query string: Respond only with growth recorded for Cc1noc(C)c1CSc1nc2ccccc2n1-c1ccccc1
Result string: 111

Query string: Respond only with growth recorded for C/C(=N\NC(N)=S)c1nnn(-c2ccc([N+](=O)[O-])cc2)c1C
Result string: 105

Query string: Respond only with growth recorded for CCOC(=O)c1c(NC(=O)c2ccccc2C(F)(F)F)sc2c1CCC(=O)C2
Result string: 33.4

Query string: Respond only with growth recorded for O=C(NNc1nc2cc(F)ccc2n2c(CN3CC4CNCC4C3)ccc12)c1cnccn1 (stereo not drawn)
Result string: 0.485

Query string: Respond only with growth recorded for N/C(=N\C(N)=N\c1nc2ccccc2s1)c1ccc(Cl)cc1
Result string: 90.3

Query string: Respond only with growth recorded for COc1cc2oc(-c3cccc(C(=O)N[C@@H](CC(C)C)C(=O)OC(C)(C)C)c3)cc(=O)c2c(OC)c1OC
Result string: 76.8
